# MEASURED TARGET: T1, hIL-4Rα on cells (human, UniProt P24394 26-825)
# T1 sequence: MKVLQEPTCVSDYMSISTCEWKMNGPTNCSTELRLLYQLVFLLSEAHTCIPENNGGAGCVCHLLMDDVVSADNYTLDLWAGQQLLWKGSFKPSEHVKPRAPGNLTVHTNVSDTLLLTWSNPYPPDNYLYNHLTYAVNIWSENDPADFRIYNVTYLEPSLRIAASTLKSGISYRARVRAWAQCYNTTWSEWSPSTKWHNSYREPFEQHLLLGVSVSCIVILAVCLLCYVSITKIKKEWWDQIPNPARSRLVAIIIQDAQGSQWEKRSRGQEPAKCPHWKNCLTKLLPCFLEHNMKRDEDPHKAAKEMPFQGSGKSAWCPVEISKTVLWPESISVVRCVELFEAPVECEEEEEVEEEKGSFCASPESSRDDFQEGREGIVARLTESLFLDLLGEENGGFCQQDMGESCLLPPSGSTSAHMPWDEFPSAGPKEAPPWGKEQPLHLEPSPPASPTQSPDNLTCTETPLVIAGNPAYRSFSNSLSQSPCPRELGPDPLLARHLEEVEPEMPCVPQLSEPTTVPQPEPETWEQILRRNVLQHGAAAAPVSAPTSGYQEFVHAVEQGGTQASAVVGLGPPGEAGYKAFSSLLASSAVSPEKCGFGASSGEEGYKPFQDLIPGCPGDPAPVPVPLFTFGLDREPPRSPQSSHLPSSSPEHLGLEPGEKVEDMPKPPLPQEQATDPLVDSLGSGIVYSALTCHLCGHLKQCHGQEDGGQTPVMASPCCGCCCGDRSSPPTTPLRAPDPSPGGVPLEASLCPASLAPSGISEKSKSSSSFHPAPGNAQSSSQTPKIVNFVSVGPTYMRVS
# PROTOCOL NOTES: cell-based or functional assay
METRIC: Relative Inhibition of IL-13 induced TARC IC50

BINDER	TEST RESULT
Construct 45 (mAb494) (antibody, IgG4, V domains shown, VH/VL only) VH: EVQLVESGGGLEQPGGSLRLSCAGSGFTFRDFAMTWVRQAPGKGLEWVSSISGSGDGTYYADSVKGRFTISRDNSKNTLYLQMNSLRAEDTAVYYCAKDRVSITIRPRYYGLDVWGQGTTVTVSS VL: DIVMTQSPLSLPVTPGEPASISCTASQSLLYSIGYNYVDWYLQKSGQSPQLLIYLGNNRATGVPDRFSGSGSGTDFTLKISRVEAEDVGFYYCMQSLQTPYTFGQGTKLEIK	14.5 relative to dupilumab

Ask: Which Relative Inhibition of IL-13 induced TARC IC50 value belongs to Construct 12 (mAb421) (antibody, IgG4, V domains shown, VH/VL only) VH: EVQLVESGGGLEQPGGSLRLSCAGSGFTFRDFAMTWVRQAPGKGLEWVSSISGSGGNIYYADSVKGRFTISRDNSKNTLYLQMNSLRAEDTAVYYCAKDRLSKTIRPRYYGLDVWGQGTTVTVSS VL: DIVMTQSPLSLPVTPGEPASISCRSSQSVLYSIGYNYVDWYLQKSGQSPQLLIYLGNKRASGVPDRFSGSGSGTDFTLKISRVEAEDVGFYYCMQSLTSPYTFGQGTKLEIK ?
Result: 0.521 relative to dupilumab

Ask: Which Relative Inhibition of IL-13 induced TARC IC50 value belongs to Construct 36 (mAb469) (antibody, IgG4, V domains shown, VH/VL only) VH: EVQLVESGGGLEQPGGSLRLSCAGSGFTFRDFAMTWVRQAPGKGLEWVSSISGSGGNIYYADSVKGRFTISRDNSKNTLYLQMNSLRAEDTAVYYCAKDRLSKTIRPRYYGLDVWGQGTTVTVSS VL: DIVMTQSPLSLPVTPGEPASISCRSSQSLLYSIGKNYVDWYLQKSGQSPQLLIYEGNNRASGVPDRFSGSGSGTDFTLKISRVEAEDVGFYYCMQSLTSPYTFGQGTKLEIK ?
Result: 0.999 relative to dupilumab
